target: urokinase (Homo sapiens)
experimental_endpoint: Ki
Please append the unit to your numeric answer.

The molecule N=C(N)NCCC[C@H](N)C(=O)O showed Ki equal to 70 mM
